Target: UniProtKB P56817
Assay: In Vitro BACE Cell-based Assay (HEK cell assay): Aβ40 in conditioned medium of cells stably expressing Amyloid Precursor Protein, sandwich ELISA
Conditions: Table III; IC50's in uM ranges; read-out: HEK cell assay
Measured Quantity: IC50

A selection of reference data follows.
{"columns": ["Compound", "Endpoint Result"],
 "data": [
  ["CC1(COc2ccc3c(c2)[C@]2(COC(N)=N2)c2cc(-c4cncnc4)cnc2O3)COC1", "0.1 to 1 µM"],
  ["NC1=N[C@]2(CO1)c1cc(OC3CCC3)ccc1Oc1ccc(-c3cccnc3)cc12", "0.1 to 1 µM"]
]}

For the next question, use this compound.
Prompt: Item COc1ccncc1-c1ccc2c(c1)[C@@]1(COC(N)=N1)c1cc(OCC(C)(C)C)ccc1O2 has what recorded IC50?
Response: 1 to 5 µM

----------
Molecular target: BACE1 (Homo sapiens, UniProt P56817)
Sequence (P56817 46-501, species assumed): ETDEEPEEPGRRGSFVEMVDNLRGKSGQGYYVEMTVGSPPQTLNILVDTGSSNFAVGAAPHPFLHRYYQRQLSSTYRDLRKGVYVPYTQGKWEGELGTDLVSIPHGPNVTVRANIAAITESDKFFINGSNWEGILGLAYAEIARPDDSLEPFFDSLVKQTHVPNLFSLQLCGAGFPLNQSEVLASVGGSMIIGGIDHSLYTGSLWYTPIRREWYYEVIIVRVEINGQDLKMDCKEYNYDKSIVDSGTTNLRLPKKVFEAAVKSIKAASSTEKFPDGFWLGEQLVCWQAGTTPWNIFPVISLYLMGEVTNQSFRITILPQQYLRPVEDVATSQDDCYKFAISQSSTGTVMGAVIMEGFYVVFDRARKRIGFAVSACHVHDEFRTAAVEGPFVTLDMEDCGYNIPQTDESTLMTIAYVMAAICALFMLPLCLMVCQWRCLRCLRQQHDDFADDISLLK
Assay: In Vitro Enzymatic BACE FRET (Fluorescence Resonance Energy Transfer) Assay
Assay type: biochemical
Details: read-out: BACE1 FRET assay
Protocol: In Vitro Enzymatic BACE FRET (Fluorescence Resonance Energy Transfer) Assay (Enzyme Assay Data in the Example Tables I, II, III & IV) The assay buffer used in this screen is 0.05 M acetate, pH 4.2, 10% DMSO final, 100 uM genapol (which is a nonionic detergent, below its Critical Micelle Concentration). […] The FRET assay is terminated with by addition of Tris buffer, which raises the pH to neutrality, and the fluorescence is determined. […]
pIC50: −log10 of the molar value.
Measured Quantity: pIC50

A selection of reference data follows.
{"columns": ["Compound", "pIC50"],
 "data": [
  ["CC(C)(C)OC(=O)/C=C/c1ccc2c(c1)[C@]1(COC(N)=N1)c1cc(Br)ccc1O2", "< 5.30"],
  ["N#Cc1ccc(-c2ccc3c(c2)[C@@]2(COC(N)=N2)c2cc(-c4cccnc4)ccc2O3)cn1", "> 7.00"],
  ["NC1=N[C@]2(CO1)c1cc(-c3ccccc3)ccc1Oc1ncc(C3=CCOCC3)cc12", "5.30 to 6.00"]
]}

For the next question, use this compound.
Prompt: Item CC1(C#Cc2cc(F)c3c(c2)[C@]2(COC(N)=N2)c2cc(-c4cncnc4)ccc2O3)COC1 has what recorded pIC50?
Response: > 7.00

----------
Target: BACE1 (Homo sapiens, UniProt P56817)
Assay: In Vitro BACE Cell-based Assay (HEK cell assay): Aβ40 in conditioned medium of cells stably expressing Amyloid Precursor Protein, sandwich ELISA
Conditions: read-out: HEK cell assay
Measured Quantity: IC50

A selection of reference data follows.
{"columns": ["Compound", "Endpoint Result"],
 "data": [
  ["CC(C)(C)COc1ccc2c(c1)[C@]1(COC(N)=N1)c1cc(C3CC3)ccc1O2 [compound 759]", "1000 to 5000 nM"],
  ["CC(C)(C)COc1ccc2c(c1)[C@]1(COC(N)=N1)c1cc(-c3ccc(=O)[nH]c3)ccc1O2 [compound 980]", "1000 to 5000 nM"]
]}

Prompt: Item CC(C)(O)C#Cc1ccc2c(c1)[C@@]1(COC(N)=N1)c1cc(C#CC(C)(C)O)cnc1O2 [compound 935] has what recorded IC50?
Response: 100 to 1000 nM

Prompt: Param item: NC1=N[C@]2(CO1)c1cc(C#CC3(O)COC3)ccc1Oc1ccc(-c3cccnc3)cc12 [compound 685]
Response: < 100 nM

Prompt: Param item: CC(C)(C)COc1ccc2c(c1)[C@]1(COC(N)=N1)c1cc(C3CC3(C)C)ccc1O2 (stereo partly shown) [compound 754]
Response: 100 to 1000 nM

Prompt: Param item: CC(C)(C)OC(=O)/C=C/c1ccc2c(c1)[C@]1(COC(N)=N1)c1cc(-c3cccnc3)ccc1O2 [compound 995]
Response: 1000 to 5000 nM

Prompt: Param item: CC(C)Cn1cc(-c2ccc3c(c2)[C@]2(COC(N)=N2)c2cc(-c4cccnc4)ccc2O3)cn1 [compound 708]
Response: 100 to 1000 nM

Prompt: Param item: NC1=N[C@]2(CO1)c1cc(Br)ccc1Oc1ccc(-c3cccnc3)cc12 [compound 960]
Response: 1000 to 5000 nM

Prompt: Param item: CCOc1ccc(-c2cnc3c(c2)[C@]2(COC(N)=N2)c2cc(OC)ccc2O3)cn1 [compound 667]
Response: 100 to 1000 nM

Prompt: Param item: CC(C)(C)/C=C/c1ccc2c(c1)[C@]1(COC(N)=N1)c1cc(-c3cncnc3)ccc1O2 [compound 963]
Response: < 100 nM

Prompt: Param item: NC1=N[C@]2(CO1)c1cc(OC3COC3)ccc1Oc1ccc(-c3cncnc3)cc12 [compound 776]
Response: 100 to 1000 nM

Prompt: Param item: NC1=N[C@@]2(CO1)c1cc(-c3cccnc3)ccc1Oc1cnc(C3=CCCCC3)cc12 [compound 789]
Response: < 100 nM

Prompt: Param item: CCC(C)(O)COc1ccc2c(c1)[C@]1(COC(N)=N1)c1cc(-c3cccnc3)ccc1O2 (stereo partly shown) [compound 770]
Response: < 100 nM

Prompt: Param item: NC1=N[C@]2(CO1)c1cc(/C=C/C(=O)O)ccc1Oc1ccc(-c3cccnc3)cc12 [compound 949]
Response: > 5000 nM

----------
Biological target: UniProt P56817
Experiment: In Vitro Enzymatic BACE FRET (Fluorescence Resonance Energy Transfer) Assay
Assay type: biochemical
Conditions: read-out: BACE1 FRET assay
Listing of recorded IC50 by entry.

{"columns": ["Molecule", "Measurement Target", "IC50"],
 "data": [
  ["COC(=O)c1ccc(-c2ccc3c(c2)[C@]2(COC(N)=N2)c2cc(-c4cccnc4)ccc2O3)s1", "UniProt P56817", "< 100 nM"],
  ["NC1=N[C@@]2(CO1)c1cc(-c3cccnc3)ccc1Oc1cnc(N)cc12", "UniProt P56817", "100 to 1000 nM"],
  ["CC(C)(C)COc1ccc2c(c1)[C@]1(COC(N)=N1)c1cc(C(=O)NC3CCC3)ccc1O2", "UniProt P56817", "< 100 nM"],
  ["Cc1ccc(-n2ccc3c(c2=O)[C@@]2(COC(N)=N2)c2cc(-c4cccnc4)ccc2O3)cc1", "UniProt P56817", "> 5000 nM"]
]}

Prompt: Item N#Cc1ccccc1-c1ccc2c(c1)[C@]1(COC(N)=N1)c1cc(-c3cccnc3)ccc1O2 has what recorded IC50?
Response: < 100 nM

Prompt: Param item: NC1=N[C@@]2(CO1)c1cc(-c3cncnc3)ccc1Oc1ccc(-c3ccc(F)nc3)cc12
Response: < 100 nM

----------
Target: UniProt P56817
Assay: In Vitro Enzymatic BACE FRET (Fluorescence Resonance Energy Transfer) Assay
Assay type: biochemical
Conditions: Table IV, class symbols; read-out: BACE1 FRET assay
Measured Quantity: IC50

A selection of reference data follows.
{"columns": ["Compound", "Endpoint Result"],
 "data": [
  ["COc1ccc2c(c1)[C@]1(COC(N)=N1)c1cc(NC(=O)c3ccccn3)ccc1O2", "0.1 to 1 µM"],
  ["Cc1cccc(-c2ccc3c(c2)[C@]2(COC(N)=N2)c2cccnc2O3)c1", "0.1 to 1 µM"],
  ["CN(C)C(=O)/C=C/c1ccc2c(c1)[C@]1(COC(N)=N1)c1cc(-c3cncnc3)ccc1O2", "< 0.1 µM"]
]}

Prompt: Item CC(C)(O)COc1ccc2c(c1)[C@]1(COC(N)=N1)c1cc(-c3cccnc3F)ccc1O2 has what recorded IC50?
Response: < 0.1 µM

----------
Molecular target: BACE1 (Homo sapiens)
Assay: In Vitro Enzymatic BACE FRET (Fluorescence Resonance Energy Transfer) Assay
Assay type: biochemical
Conditions: read-out: BACE1 FRET assay
pIC50: −log10 of the molar value.
Listing of recorded pIC50 by entry.

A selection of reference data follows.
{"columns": ["Compound", "Measured Quantity", "Endpoint Result"],
 "data": [
  ["NC1=N[C@]2(CO1)c1cc(-c3cccnc3)ccc1Oc1cnc(Cl)cc12 [compound 953]", "pIC50", "6.00 to 7.00"],
  ["NC1=N[C@@]2(CO1)c1cc(-c3cccnc3)ccc1Oc1ccc(-c3ccsc3)cc12 [compound 672]", "pIC50", "> 7.00"],
  ["NC1=N[C@]2(CO1)c1ccncc1Oc1ccc(-c3cccnc3)cc12 [compound 675]", "pIC50", "6.00 to 7.00"]
]}

For the next question, use this compound.
Prompt: Item Cc1ccc(-n2ccc3c(c2=O)[C@]2(COC(N)=N2)c2cc(-c4cccnc4)ccc2O3)cc1 [compound 504] has what recorded pIC50?
Response: 6.00 to 7.00

----------
Target: UniProt:P56817
Assay: In Vitro BACE Cell-based Assay (HEK cell assay): Aβ40 in conditioned medium of cells stably expressing Amyloid Precursor Protein, sandwich ELISA
Settings: Table IV, class symbols; read-out: HEK cell assay
pIC50: −log10 of the molar value.
Measured Quantity: pIC50

{"columns": ["Compound", "Endpoint Result"],
 "data": [
  ["CC1(C)CN(c2ccc3c(c2)[C@]2(COC(N)=N2)c2cc(-c4cccnc4)ccc2O3)CCO1", "> 7.00"],
  ["COc1ccc2c(c1)[C@@]1(COC(N)=N1)c1c(ccc(-c3cncnc3)c1F)O2 [compound 816]", "< 5.30"],
  ["CC(C)(C)COc1ccc2c(c1)[C@]1(COC(N)=N1)c1cc(-c3ccc(N4CCOCC4)nc3)ccc1O2", "< 5.30"]
]}

Prompt: Under UniProt:P56817: pIC50 value of CC(=O)c1ccc(-c2ccc3c(c2)[C@]2(COC(N)=N2)c2cc(-c4cncnc4)ccc2O3)cc1 ?
Response: > 7.00

Prompt: Param item: CC(C)(C)COc1ccc2c(c1)[C@]1(COC(N)=N1)c1cc(C3CCCCO3)ccc1O2 (stereo partly shown)
Response: 6.00 to 7.00

Prompt: Param item: Cn1cc(-c2ccc3c(c2)[C@]2(COC(N)=N2)c2cc(-c4cccnc4)ccc2O3)ccc1=O
Response: 6.00 to 7.00

Prompt: Param item: COC(=O)CCc1ccc2c(c1)[C@]1(COC(N)=N1)c1cc(-c3cncnc3)ccc1O2
Response: 6.00 to 7.00
